Biological target: T1, human TMEM106B (human, UniProt Q9NUM4 2-274)
T1 construct: Full-length, on transiently transfected HEK293 cells, or natively expressed on HeLa, U251 and A549 cells; also called huTMEM106B; huTMEM
Experiment: FACS U251;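 further: flow cytometry of cells exposed to antibody (purified at 10 µg/mL, or hybridoma supernatant) for 1 h on ice, with propidium iodide-positive dead cells gated out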
binders and their reported MFI
Give the value as a plain number.

Here's what some known entries look like.
- Binder: "anti-TMEM106B antibody TM-6 (antibody, V domains shown, mouse IgG from hybridoma) VH: QVQLQQSGAELVKPGASVKLSCKASGYTFTEYTIHWVKQRSGQGLEWIGWFYPGSTYIDYNEKFKDKATLTADKSSSTVYLELSRLTSEDSAVYFCARHEEDYSNWFPFWGQGTLVTVSA VL: DIQMSQSSSYLSVSLGGRVTITCKASDHINNWLAWYQQKPGNAPRLLISGATSLETGVPSRFSGSGSGKDYTLSITSLQTEDVATYYCQQYWSSPYTFGGGTKLEIK"
  MFI: 304
- Binder: "anti-TMEM106B antibody TM-45 (antibody, V domains shown) VH: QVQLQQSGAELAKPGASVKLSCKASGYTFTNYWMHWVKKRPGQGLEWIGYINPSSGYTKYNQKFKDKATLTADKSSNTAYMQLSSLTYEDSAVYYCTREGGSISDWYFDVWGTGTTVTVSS VL: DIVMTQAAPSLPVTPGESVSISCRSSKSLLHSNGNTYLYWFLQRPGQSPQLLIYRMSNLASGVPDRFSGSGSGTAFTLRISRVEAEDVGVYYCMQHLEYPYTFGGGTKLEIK"
  MFI: 517

We now examine a further binder.
Task: Dear colleague, I am looking for the recorded MFI of the following binder: anti-TMEM106B antibody TM-33 (antibody, V domains shown, mouse IgG from hybridoma) VH: EFQLQQSGPELVKPGASVKISCKASGYSFTDYNMNWVKQSNGKSLEWIGVINPNYGTTSYNQKFKGKATLTVDQSSSTAYMQLNSLTSEDSAVYYCASSYWGQGTLVTVSA VL: DIVMTQSQKFMSTTVGDRVSITCKASQNVGTAVAWYQQKPGQSPKLLIYSASNRYTGVPDRFTGSGSGTDFTLTISNMQSEDLADYFCQQYSSYPYTFGGGTKLEIK
Result: 202

Entry source: patent US20230303681A1
